- System Name: BRD3(2) (Homo sapiens)
- Sequence (Q15059 306-415 limits assumed): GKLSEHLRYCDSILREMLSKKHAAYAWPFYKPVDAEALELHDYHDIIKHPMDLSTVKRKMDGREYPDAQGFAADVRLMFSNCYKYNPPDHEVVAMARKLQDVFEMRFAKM
- Procedure Text: BROMOscan ligand-binding assay
- Condition Details: read-out: KD (BROMOscan); sheet prints no unit (nM)
Test Readout: Kd

For COc1cc(C#N)ccc1S(=O)(=O)Nc1ccc2c(c1)cc(C)c(=O)n2C [NIC57] on BRD3(2) (Homo sapiens), measured Kd was > 30000 nM

---

- System Name: PRMT9 (Homo sapiens, UniProt Q6P2P2)
- Construct: purchased DiscoverX BROMOscan (bromodomains); SGC in-house methyltransferase panel
- Sequence (Q6P2P2 1-845): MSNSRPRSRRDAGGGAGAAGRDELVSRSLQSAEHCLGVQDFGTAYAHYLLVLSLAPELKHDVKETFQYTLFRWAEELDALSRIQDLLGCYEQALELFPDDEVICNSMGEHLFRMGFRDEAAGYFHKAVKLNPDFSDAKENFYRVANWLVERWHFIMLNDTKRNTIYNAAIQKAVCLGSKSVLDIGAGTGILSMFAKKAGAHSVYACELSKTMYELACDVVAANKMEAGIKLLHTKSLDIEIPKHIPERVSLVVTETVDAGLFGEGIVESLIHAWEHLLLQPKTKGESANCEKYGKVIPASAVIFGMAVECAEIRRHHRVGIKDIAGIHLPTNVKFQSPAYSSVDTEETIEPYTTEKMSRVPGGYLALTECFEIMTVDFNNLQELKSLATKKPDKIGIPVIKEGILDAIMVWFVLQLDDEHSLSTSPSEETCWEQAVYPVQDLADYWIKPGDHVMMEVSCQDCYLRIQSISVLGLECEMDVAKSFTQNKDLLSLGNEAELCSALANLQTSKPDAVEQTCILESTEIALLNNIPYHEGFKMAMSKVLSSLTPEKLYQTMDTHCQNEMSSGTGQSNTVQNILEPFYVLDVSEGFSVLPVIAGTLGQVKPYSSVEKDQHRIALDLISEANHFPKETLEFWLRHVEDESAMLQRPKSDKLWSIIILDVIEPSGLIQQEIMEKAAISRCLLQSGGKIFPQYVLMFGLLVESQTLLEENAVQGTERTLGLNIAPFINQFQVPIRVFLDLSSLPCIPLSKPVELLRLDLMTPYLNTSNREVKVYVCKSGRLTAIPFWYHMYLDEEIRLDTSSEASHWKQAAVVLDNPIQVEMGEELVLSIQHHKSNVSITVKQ
- Procedure Text: Methyl transferase scintillation proximity assay
- Type: biochemical
- Condition Details: average of two measurements, read-out: MTases Inhibition (%)
Test Readout: inhibition at 10 µM
Provide a numeric answer, followed by its unit.

Solved entries:
Compound	inhibition at 10 µM
Cc1nnc2c3ccccc3c(N[C@@H](C)[C@H](c3ccccc3)N(C)C)nn12	13%
Cc1c(NC(=O)c2cc(C(N)=O)nc3cc(F)ccc23)c(C(F)(F)F)nn1Cc1ccc(C#N)cc1	12%
CO[C@H]1CNC[C@@H](OCC2CCC(F)(F)CC2)[C@@H]1Nc1ncc(-c2cncc(C)c2)c2cc(C)c(=O)[nH]c12	3%

Measured inhibition at 10 µM of CN1C[C@H](Nc2cnn(C)c(=O)c2Br)C[C@H](c2ccccc2)C1 : 8%

---

- System Name: UniProt:Q15059
- Procedure Text: BROMOscan ligand-binding assay
- Condition Details: KD (BROMOscan), sheet prints no unit (nM)
Test Readout: Kd

Measured Kd of O=C(C=CN1CC2CC1CN2c1ccccn1)c1ccccc1O (stereo not shown) : > 30000 nM

---

- System Name: GCN5L2 (Homo sapiens, UniProt Q92830)
- Sequence (Q92830 728-832 limits assumed): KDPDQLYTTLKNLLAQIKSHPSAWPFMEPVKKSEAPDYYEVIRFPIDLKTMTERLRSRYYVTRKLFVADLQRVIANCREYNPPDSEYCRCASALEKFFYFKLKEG
- Procedure Text: BROMOscan ligand-binding assay
- Condition Details: BROMOscan, GCN5L2
Test Readout: pKd
API: returns pKd as number; meaning -log10 of concentration in mol/L.

Measured pKd of O=C(C=CN1[C@H]2CC[C@@H]1c1ncnc(NC3CC3)c1C2)c1ccccc1O [PFI-3 D1] : 4.64

---

Reported HATs Activity (%) values follow for various compounds
- System Name: HAT1 (Homo sapiens, UniProt O14929)
- Sequence (O14929 1-419): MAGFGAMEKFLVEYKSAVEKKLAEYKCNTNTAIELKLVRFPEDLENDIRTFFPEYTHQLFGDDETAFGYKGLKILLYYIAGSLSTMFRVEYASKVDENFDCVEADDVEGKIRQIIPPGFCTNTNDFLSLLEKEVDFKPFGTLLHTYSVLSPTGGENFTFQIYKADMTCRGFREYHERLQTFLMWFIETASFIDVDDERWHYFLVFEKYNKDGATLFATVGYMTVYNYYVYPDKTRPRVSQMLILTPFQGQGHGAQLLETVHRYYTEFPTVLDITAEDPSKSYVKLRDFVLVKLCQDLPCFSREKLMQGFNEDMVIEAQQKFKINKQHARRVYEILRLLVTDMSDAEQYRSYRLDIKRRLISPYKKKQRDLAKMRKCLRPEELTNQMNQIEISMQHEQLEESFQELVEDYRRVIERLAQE
- Procedure Text: Histone acetyltransferase (HAT) activity assay
- Assay type: biochemical
- Condition Details: 10µM
Provide a numeric answer, followed by its unit.

Compound	HATs Activity (%)
Cc1cc(=O)n(C)c2cc(N3C(=O)CC[C@H](NS(=O)(=O)CC(C)C)[C@H]3c3ccc(Cl)cc3)ccc12	95%
COc1cc2c(cc1NS(=O)(=O)c1ccc(Br)cc1C)n(C)c(=O)n2C	93%
COc1ccccc1S(=O)(=O)Nc1ccc2c(c1)CN(C)C(=O)N2	93%

Measured HATs Activity (%) of CCn1cc(-c2cccc(C(F)(F)F)c2)c2sc(C(=N)NC3CCS(=O)(=O)CC3)cc2c1=O : 101%

Measured HATs Activity (%) of COc1ccccc1C(=O)Nc1cc2c(cc1N1CCNC[C@H]1C)n(C)c(=O)n2C : 94%

Measured HATs Activity (%) of COc1cc(C#N)ccc1S(=O)(=O)Nc1ccc2c(c1)cc(C)c(=O)n2C : 104%

---

- System Name: BRD2(2) (Homo sapiens)
- Sequence (P25440 344-453 limits assumed): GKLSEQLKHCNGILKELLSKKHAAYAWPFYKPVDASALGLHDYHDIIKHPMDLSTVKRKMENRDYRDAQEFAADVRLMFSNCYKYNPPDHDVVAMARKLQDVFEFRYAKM
- Procedure Text: BROMOscan ligand-binding assay
- Condition Details: BROMOscan, BRD2(2)
Test Readout: Kd (µM)
Please give a number only; it is taken to be in µM.

Measured Kd of Cc1cc(=O)n(C)c2cc(N3C(=O)CC[C@H](NS(=O)(=O)CC(C)C)[C@H]3c3ccc(Cl)cc3)ccc12 [LP-99] : 9.2

---

- System Name: BRD3(1,2) (Homo sapiens, UniProt Q15059)
- Sequence (Q15059 24-416 limits assumed): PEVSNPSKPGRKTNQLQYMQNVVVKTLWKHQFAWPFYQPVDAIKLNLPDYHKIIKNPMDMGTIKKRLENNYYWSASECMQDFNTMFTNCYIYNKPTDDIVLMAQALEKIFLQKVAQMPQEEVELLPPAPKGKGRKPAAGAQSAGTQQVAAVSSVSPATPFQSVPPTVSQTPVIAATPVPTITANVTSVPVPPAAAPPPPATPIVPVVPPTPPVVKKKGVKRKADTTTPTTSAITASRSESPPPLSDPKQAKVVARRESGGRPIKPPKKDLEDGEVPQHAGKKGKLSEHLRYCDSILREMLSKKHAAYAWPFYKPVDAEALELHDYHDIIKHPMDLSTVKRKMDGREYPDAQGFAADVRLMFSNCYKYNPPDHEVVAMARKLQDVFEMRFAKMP
- Procedure Text: BROMOscan ligand-binding assay
- Condition Details: KD, BRD3(1,2)
pKd: −log10 of the molar value.
Test Readout: pKd

Measured pKd of O=C(C=CN1CC2CC1CN2c1ccccn1)c1ccccc1O (stereo not shown) [PFI-3] : < 4.00

---

- System Name: UniProtKB Q92830
- Procedure Text: Histone acetyltransferase (HAT) activity assay
- Format: biochemical
- Condition Details: 10µM
- Sequence (Q92830 whole entry, species assumed): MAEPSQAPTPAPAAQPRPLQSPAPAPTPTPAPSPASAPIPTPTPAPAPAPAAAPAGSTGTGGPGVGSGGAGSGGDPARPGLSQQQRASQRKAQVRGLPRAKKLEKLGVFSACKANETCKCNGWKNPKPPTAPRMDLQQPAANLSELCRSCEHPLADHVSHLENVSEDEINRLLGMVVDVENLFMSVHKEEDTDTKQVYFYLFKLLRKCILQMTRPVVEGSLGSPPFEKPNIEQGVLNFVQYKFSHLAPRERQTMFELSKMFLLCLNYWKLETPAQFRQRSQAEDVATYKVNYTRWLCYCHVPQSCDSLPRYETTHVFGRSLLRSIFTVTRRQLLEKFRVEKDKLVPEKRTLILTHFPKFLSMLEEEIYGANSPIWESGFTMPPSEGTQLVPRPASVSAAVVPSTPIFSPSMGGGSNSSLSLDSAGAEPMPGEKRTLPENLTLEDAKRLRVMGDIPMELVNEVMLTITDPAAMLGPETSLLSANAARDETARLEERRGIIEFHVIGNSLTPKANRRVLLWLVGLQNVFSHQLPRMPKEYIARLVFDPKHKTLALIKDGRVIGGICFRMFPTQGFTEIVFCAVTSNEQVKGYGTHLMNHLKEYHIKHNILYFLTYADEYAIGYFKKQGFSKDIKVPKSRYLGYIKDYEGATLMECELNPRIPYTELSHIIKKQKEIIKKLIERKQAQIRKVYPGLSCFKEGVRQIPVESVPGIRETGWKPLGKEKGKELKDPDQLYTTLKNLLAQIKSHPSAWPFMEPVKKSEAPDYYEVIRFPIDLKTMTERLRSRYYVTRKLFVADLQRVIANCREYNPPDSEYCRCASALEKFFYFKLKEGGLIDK
Test Readout: HATs Activity (%)
Please give a number only; it is taken to be in %.

Solved entries:
Compound	Test Value
COc1cc2c(cc1NS(=O)(=O)c1ccc(Br)cc1C)n(C)c(=O)n2C	93
COc1ccccc1S(=O)(=O)Nc1ccc2c(c1)CN(C)C(=O)N2	93
CCn1cc(-c2cccc(C(F)(F)F)c2)c2sc(C(=N)NC3CCS(=O)(=O)CC3)cc2c1=O	102
Cc1cc(=O)n(C)c2cc(N3C(=O)CC[C@H](NS(=O)(=O)CC(C)C)[C@H]3c3ccc(Cl)cc3)ccc12	89

For COc1cc(C#N)ccc1S(=O)(=O)Nc1ccc2c(c1)cc(C)c(=O)n2C on UniProtKB Q92830, measured HATs Activity (%) was 96

For COc1ccccc1C(=O)Nc1cc2c(cc1N1CCNC[C@H]1C)n(C)c(=O)n2C on UniProtKB Q92830, measured HATs Activity (%) was 107

---

- System Name: BRD1 (Homo sapiens, UniProt O95696)
- Sequence (O95696 562-666 limits assumed): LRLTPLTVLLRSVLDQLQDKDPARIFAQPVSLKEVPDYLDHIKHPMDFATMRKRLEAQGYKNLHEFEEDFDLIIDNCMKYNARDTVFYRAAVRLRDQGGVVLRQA
- Procedure Text: BROMOscan ligand-binding assay
- Condition Details: read-out: KD (BROMOscan); sheet prints no unit (nM)
Test Readout: Kd

For COc1cc(C#N)ccc1S(=O)(=O)Nc1ccc2c(c1)cc(C)c(=O)n2C on BRD1 (Homo sapiens, UniProt O95696), measured Kd was 46 nM

---

Reported Kd values follow for various molecules
- System Name: BRD7 (Homo sapiens, UniProt Q9NPI1)
- Sequence (Q9NPI1 131-235 limits assumed): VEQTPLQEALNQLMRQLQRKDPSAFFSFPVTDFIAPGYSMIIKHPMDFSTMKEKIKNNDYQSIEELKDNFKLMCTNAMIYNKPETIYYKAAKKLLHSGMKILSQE
- Procedure Text: BROMOscan ligand-binding assay
- Condition Details: KD, BRD7

Molecule	Test Value
O=C(C=CN1CC2CC1CN2c1ccccn1)c1ccccc1O (centres unmarked)	> 0.1 mM

Measured Kd of O=C(O)c1ccccc1O : > 14 mM

---

Reported Kd values follow for various compounds
- System Name: TAF1(2) (Homo sapiens)
- Sequence (P21675 1519-1628 limits assumed): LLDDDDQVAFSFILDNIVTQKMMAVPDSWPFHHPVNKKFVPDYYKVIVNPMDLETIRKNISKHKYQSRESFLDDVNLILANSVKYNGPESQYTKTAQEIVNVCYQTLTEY
- Procedure Text: BROMOscan ligand-binding assay
Please give a number only; it is taken to be in µM.

Solved entries:
Compound	Kd [µM]
CCC(=O)N1CCOc2c(cc(-c3ccc(OC)c(OC)c3)cc2OCC2CCCN(C)C2)C1 (centres unmarked)	45
COc1ccc(CCc2nc3cc(-c4c(C)noc4C)ccc3n2C[C@H](C)N2CCOCC2)cc1Cl	3.1
CCCOc1ccn2c(C(C)=O)cc(-c3ccccc3S(C)(=O)=O)c2c1	1.4

// switching to the query compound
For CCCS(=O)(=O)c1nc(NC2CC2)cc(-c2ccc3c(ccn3C3CC(C)(C)NC(C)(C)C3)c2)n1 on TAF1(2) (Homo sapiens), measured Kd was 2.1
